# target_or_test_system: Cytochrome P450 1A2 (Homo sapiens) (UniProt P05177)
# Sequence (P05177 whole entry, looked up): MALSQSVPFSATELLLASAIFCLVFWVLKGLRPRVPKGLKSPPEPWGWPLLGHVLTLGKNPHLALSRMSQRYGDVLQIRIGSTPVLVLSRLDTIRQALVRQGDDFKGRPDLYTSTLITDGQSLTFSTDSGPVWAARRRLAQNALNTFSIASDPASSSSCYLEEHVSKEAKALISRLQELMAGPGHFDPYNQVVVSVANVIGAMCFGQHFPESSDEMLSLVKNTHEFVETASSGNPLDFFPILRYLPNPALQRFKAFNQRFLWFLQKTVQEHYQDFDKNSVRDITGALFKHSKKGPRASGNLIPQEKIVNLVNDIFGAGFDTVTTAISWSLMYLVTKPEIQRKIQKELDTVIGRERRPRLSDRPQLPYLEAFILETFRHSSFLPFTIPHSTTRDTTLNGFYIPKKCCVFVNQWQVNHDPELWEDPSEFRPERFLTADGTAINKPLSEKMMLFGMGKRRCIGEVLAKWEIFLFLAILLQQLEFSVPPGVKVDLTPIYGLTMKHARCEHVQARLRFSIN
# assay_remarks: Cytochrome P450 Family 1 Subfamily A Member 2 (CYP1A2) small molecule antagonists: luciferase reporter qHTS assay (AID 1671199); also: nearly all actives have a fitted effect of over 50% in size
# condition_set: P450-Glo CYP1A2 enzyme, luciferin luminescence, 1 h; series mostly up to 115 µM
Results filed as inconclusive are left out. Activity calls are given as the source filed them. Calls follow the shape of the dose curve; as a rule, active = well fitted inhibition curve with a large enough effect in the repeat runs; inconclusive = weak or mixed curves; inactive = no such curve, though single readings can be large or run the other way.
Pick from active, inactive when you respond.

Exercise: Hi, sorry to bother you, what did the test record for CC(=O)Oc1cc2c(s1)CCN(C(C(=O)C1CC1)c1ccccc1F)C2 (stereo not drawn) ?
Key: inactive

Exercise: Called result for C=CC(=O)Nc1cc2c(Nc3ccc(F)c(Cl)c3)ncnc2cc1OCCCN1CCOCC1
Key: inactive

Exercise: Recorded test outcome, item Cc1c(F)c(N2CCNC(C)C2)cc2c1c(=O)c(C(=O)O)cn2C1CC1 (stereo not drawn)
Key: inactive

Exercise: Outcome? CCCNCCC
Key: inactive

Exercise: Look up the recorded call for CC(C)=CCNc1ncnc2c1ncn2[C@@H]1O[C@H](CO)[C@@H](O)[C@H]1O in this test.
Key: inactive

Exercise: Hi, sorry to bother you, what did the test record for NC(=S)NC(N)=S ?
Key: active

Exercise: Assay result, entry COC(=O)c1ccccc1OC — outcome?
Key: active

Exercise: Given Cc1ccc(-c2ccccc2)cc1 , state the outcome it received in this test.
Key: inactive

Exercise: # lookup: test call for COc1ccc(-c2coc3cc(O)ccc3c2=O)cc1
Key: active

Exercise: Per the records of this test, what outcome belongs to O=C(Nc1ccc2c(O)c(N=Nc3ccc(N=Nc4ccc(S(=O)(=O)O)cc4)cc3)c(S(=O)(=O)O)cc2c1)c1ccccc1 ?
Key: active

Exercise: Would you mind telling me which call this test gave COc1ccc2c(c1)c(CC(=O)OC/C=C(\C)CC/C=C(\C)CCC=C(C)C)c(C)n2C(=O)c1ccc(Cl)cc1 ?
Key: active

Exercise: Test call, this molecule: CCCCC/C=C\C/C=C\CCCCCCCC(=O)O
Key: inactive

Exercise: Would you mind telling me which call this test gave CC[N+](CC)(CC)CCOc1ccc(/C=C/c2ccccc2)cc1 ?
Key: inactive

Exercise: Recorded call for c1ccc(C(O[C@@H]2CCCN(CCc3ccc4c(c3)OCO4)C2)c2ccccc2)cc1 ?
Key: active

Exercise: Lab log entry: CC(=O)CC(=O)Nc1ccc(S(=O)(=O)O)cc1 — outcome as called in the assay?
Key: inactive

Exercise: Could you kindly confirm the outcome this assay logged for CC1(C)[C@@H](O)CC[C@]2(C)[C@H]3C(=O)C=C4[C@@H]5C[C@@](C)(C(=O)O)CC[C@]5(C)CC[C@@]4(C)[C@]3(C)CC[C@@H]12 ?
Key: inactive

Exercise: GET /call?item= COc1cc(C)ccc1O returns the recorded outcome of this test.
Key: active

Exercise: So what was the verdict on CCCCCC/C=C\CCCCCCCC(=O)O in this test?
Key: inactive

Exercise: Write down the call the test reported for this molecule. Item: COc1cc(S(=O)(=O)O)c(C)cc1N=Nc1c(O)ccc2cc(S(=O)(=O)O)ccc12
Key: active

Exercise: Assay outcome for O=C(O)[C@H](O)[C@@H](O)[C@H](O[C@@H]1O[C@H](CO)[C@H](O)[C@H](O)[C@H]1O)[C@H](O)CO : what was it?
Key: inactive

Exercise: What was the test verdict on CCCCC(CC)COC(=O)CCCCC(=O)OCc1ccccc1 (stereo not drawn) ?
Key: active

Exercise: What did this assay record as the result for Cc1c(N)cccc1C(F)(F)F ?
Key: active

Exercise: Which result was noted for this molecule in the test: CCN(CC)c1ccc2c(-c3ccc(S(=O)(=O)O)cc3S(=O)(=O)[O-])c3ccc(=[N+](CC)CC)cc-3oc2c1
Key: active
